Give measured total motile sperm for each item. Keep answers brief.
- Tested on: human spermatozoa
- ASSAY_EXPLANATION: total motile sperm, percent change vs DMSO (non-capacitating); higher = more of the measured sperm population than DMSO, for viability, fewer PI-positive (dead) cells than DMSO
- DETAILS: incubation time: 6h incubation, 9.99 µM
Structures can show the parent of a compound that is named as a salt.
Numbers only, in %.

Here's what some known entries look like.
1. Cc1sc2c(c1C)C(c1ccc(Cl)cc1)=N[C@@H](CC(=O)OC(C)(C)C)c1nnc(C)n1-2 [JQ1] ... -0.955
2. COC(=O)[C@]1(C)CC[C@]2(C)CC[C@]3(C)C4=CC=C5C(=CC(=O)C(O)=C5C)[C@]4(C)CC[C@@]3(C)[C@@H]2C1 [Pristimerin] ... -92.1
3. CC(C)c1ccc2c(c1)CC[C@H]1[C@](C)(CN)CCC[C@]21C [Leelamine hydrochloride] ... -1.74

Then there is this molecule:
So what total motile sperm did COc1ccc2nc([S@@+]([O-])Cc3ncc(C)c(OC)c3C)[nH]c2c1 [Esomeprazole] get with human spermatozoa?
-8.85

====

- System: human spermatozoa
- ASSAY_EXPLANATION: progressively motile sperm, percent change vs DMSO (non-capacitating); higher = more of the measured sperm population than DMSO, for viability, fewer PI-positive (dead) cells than DMSO; extreme values may be limits of the assay
- DETAILS: incubation time: 6h incubation, 29.9 µM
Counter-ions that a name gives are not always drawn.
Would you kindly list progressively motile sperm for each of these compounds?
Numbers only, in %.

Recorded progressively motile sperm, per entry:
1) CCCCN1C[C@@H](O)[C@H](O)[C@H](O)[C@@H]1CO ... 7.52
2) CC(C)c1ccc2c(c1)CC[C@H]1[C@](C)(CN)CCC[C@]21C [Leelamine hydrochloride] ... -84.3

Hi, could you look up progressively motile sperm for each item in my list?
1. COc1cc(N2CCOCC2)ccc1Nc1ncc(F)c(Nc2ccccc2NS(C)(=O)=O)n1
2. CC(C)(O)c1ccn2c(-c3ccc(F)c(-c4ccc(F)cc4C#N)c3)cnc2c1F

1. -69.7
2. 62.3

====

- System: HepG2
- ASSAY_EXPLANATION: HepG2 toxicity (resazurin), effect normalised to DMSO (DMSO = 0); higher = more features changed / larger toxic effect
- DETAILS: incubation time: 70h incubation; 30 µM
Provide the recorded HepG2 toxicity for the entries that follow.
Answers are plain numbers, in %.

Go through the list and state HepG2 toxicity for each entry.
1. O=C(O)c1ccc(/C=C2/SC(=S)N(c3cccc(C(F)(F)F)c3)C2=O)cc1
2. O=C(N1CCCCC1)N1CCCCC1Cc1ccccc1 (stereo not drawn)
3. CO[C@H]1[C@@H](OC)C[C@H](C)[C@@H](OC)C2=CC(=O)C=C(NC(=O)/C(C)=C/C=C/[C@H](OC)[C@@H](OC(N)=O)/C(C)=C/[C@@H]1C)C2=O
4. Cc1cc2c(C(C)C)c(O)c(O)c(C=O)c2c(O)c1-c1c(C)cc2c(C(C)C)c(O)c(O)c(C=O)c2c1O
5. CC(C)C(C(=O)OC(C#N)c1cccc(Oc2ccccc2)c1)c1ccc(Cl)cc1 (stereo not drawn) [Fenvalerate]
6. CCCCCCCCCCCCCCCCOCC(COCC(F)(F)F)OP(=O)([O-])OC (stereo not drawn)
7. Nc1ccc(-c2ccc3ncc4ccc(=O)n(-c5cccc(C(F)(F)F)c5)c4c3c2)cn1

[-1.68, -4.3, 103, 102, -6.97, 2.58, 96]

GET /values?readout=HepG2 toxicity&system=HepG2&item= CCN(CC)C(=S)SSC(=S)N(CC)CC
20.2

====

Provide the recorded change in acrosome-reacted for the entries that follow.
- Test system: human spermatozoa
- ASSAY_EXPLANATION: change in acrosome-reacted (PNA+) sperm vs DMSO, no agonist (capacitating); higher = more of the measured sperm population than DMSO, for viability, fewer PI-positive (dead) cells than DMSO
- DETAILS: incubation time: 3h, 9.99 µM
Counter-ions that a name gives are not always drawn.
Answers are plain numbers, in %.

Use these answered entries as a reference point.
1. COc1cc(C)c2c(Oc3cccc(C(F)(F)F)c3)c(OC)cc(NC(C)CCCN)c2n1 (stereo not drawn) ... 46.7
2. CCOCc1nc2c(N)nc3ccccc3c2n1CC(C)(C)O ... 0.989
3. CC(=O)N1CCC(C(=O)N(CCCN2CCN(Cc3ccc(F)cc3)CC2)c2ccc(C)c(Cl)c2)CC1 [B07 hydrochloride] ... -0.33
4. Cc1sc2c(c1C)C(c1ccc(Cl)cc1)=N[C@@H](CC(=O)OC(C)(C)C)c1nnc(C)n1-2 ... 0.641
5. O.O.O.OO.OO.[K+].[OH-].[V].c1cnc2c(c1)ccc1cccnc12 ... 1.06
6. COc1cc(N2CCOCC2)ccc1Nc1ncc(F)c(Nc2ccccc2NS(C)(=O)=O)n1 ... 0.77

# batch: return change in acrosome-reacted for each of the 2 compounds below
1. CCc1c(C)nc(SCC(=O)Nc2nc(-c3ccc(OC)cc3)cs2)[nH]c1=O
2. CCOC(=O)CSc1nc(=O)c(NCC(=O)OC)n[nH]1

1: 0.555; 2: 0.981

====

- Tested on: human spermatozoa
- ASSAY_EXPLANATION: progressively motile sperm, percent change vs DMSO (non-capacitating); higher = more of the measured sperm population than DMSO, for viability, fewer PI-positive (dead) cells than DMSO; extreme values may be limits of the assay
- DETAILS: incubation time: 6h incubation, 9.99 µM
Structures can show the parent of a compound that is named as a salt.
Short version: progressively motile sperm at least 30% is true (1), less is false (0).

1. CCOc1ccccc1OCCN[C@H](C)Cc1ccc(OC)c(S(N)(=O)=O)c1 ... false (0)
2. COc1ccc(CCCN2CCC(COC(c3ccccc3)c3ccccc3)CC2)cc1 ... true (1)
3. [O-][S+](c1ccccc1)c1ccc2nnnn2n1 (configuration not stated) ... false (0)
4. N=C(N)Nc1nc2ccccc2[nH]1 ... false (0)
5. Cc1sc2c(c1C)C(c1ccc(Cl)cc1)=N[C@@H](CC(=O)OC(C)(C)C)c1nnc(C)n1-2 ... true (1)

Does progressively motile sperm meet or surpass 30% for COc1cc2ncn(-c3cc(OCc4ccccc4C(F)(F)F)c(C(N)=O)s3)c2cc1OC ?
true (1)

Can you check CC(C)[C@H]1c2ccc(F)cc2CC[C@@]1(CCN(C)CCCc1nc2ccccc2[nH]1)OC(=O)C1CC1 [NNC 55-0396 dihydrochloride] next?
false (0)

# repeat for CC(C)c1ccc2c(c1)CC[C@H]1[C@](C)(CN)CCC[C@]21C [Leelamine hydrochloride]
true (1)

And COc1ccc2nc([S@@+]([O-])Cc3ncc(C)c(OC)c3C)[nH]c2c1 ?
true (1)

Next molecule up: NC(=O)c1cc(-c2ccc(S(=O)(=O)[C@H]3CC[C@H](Nc4ccc(C(F)(F)F)cn4)CC3)cc2)ccn1
true (1)

Next: CN(c1ccccc1CNc1nc(Nc2ccc3c(c2)CC(=O)N3)ncc1C(F)(F)F)S(C)(=O)=O
true (1)

Same read-out for O=c1c(-c2ccc(O)cc2)coc2cc(O)cc(O)c12 ?
false (0)

Ok, now Nc1nonc1C(=O)c1cccc(OCc2nc3ccccc3[nH]2)c1
false (0)

Okay, and O=C(N1CCCCC1)N1CCCCC1Cc1ccccc1 (configuration not stated) ?
false (0)

What about this molecule? NC(=O)c1cccnc1
false (0)

Another molecule to check: CC(C)Cn1cnc2c(N)nc3ccccc3c21
true (1)

Continue with COc1cn(-c2ccc(-n3cccn3)cc2F)nc(-c2ccnn2-c2ccccc2)c1=O
true (1)

====

For each entry below, report its change in acrosome-reacted value.
- Test system: human spermatozoa
- ASSAY_EXPLANATION: change in acrosome-reacted (PNA+) sperm vs DMSO, no agonist (capacitating); higher = more of the measured sperm population than DMSO, for viability, fewer PI-positive (dead) cells than DMSO
- DETAILS: incubation time: 3h, 9.99 µM
Counter-ions that a name gives are not always drawn.
Give bare numbers, in %.

Worked examples follow.
1) CCCCCCCCOc1ccc(-c2noc([C@@H]3CCCN3C(=N)N)n2)cc1C(F)(F)F ... 46.2
2) c1ccc2c(c1)SCc1c-2[nH]c2ccccc12 ... 0.192
3) Nc1ncnc2c1c(-c1cccc(OCc3ccccc3)c1)cn2[C@H]1C[C@@H](CN2CCC2)C1 ... 0.03

Please give change in acrosome-reacted for each item listed below.
1. Clc1ccc(C(OCCN2CCCCC2)c2ccccc2)cc1 (stereo unspecified) [Cloperastine hydrochloride]
2. COc1cn(-c2ccc(-n3cccn3)cc2F)nc(-c2ccnn2-c2ccccc2)c1=O

1. 1.21
2. 0.708

====

- Tested on: HeLa
- ASSAY_EXPLANATION: HeLa toxicity: nuclei-count effect normalised to DMSO (DMSO = 0); higher = more features changed / larger toxic effect
- DETAILS: incubation time: 24h incubation; 9.99 µM
READOUT_LABEL: HeLa toxicity: nuclei-count effect normalised (%)
Answers are plain numbers, in %.

1) Nc1ccc(-c2ccc3ncc4ccc(=O)n(-c5cccc(C(F)(F)F)c5)c4c3c2)cn1 ... 83.4
2) CNc1ccc2oc(C[C@H]3O[C@@]4(CC[C@H]3C)O[C@H]([C@H](C)C(=O)c3ccc[nH]3)[C@H](C)C[C@H]4C)nc2c1C(=O)O ... 79.6
3) COc1cc(N2CCOCC2)ccc1Nc1ncc(F)c(Nc2ccccc2NS(C)(=O)=O)n1 ... 12

Quick batch: HeLa toxicity: nuclei-count effect normalised for everything below.
1. CCCCC/C=C\C/C=C\C/C=C\C/C=C\CCCC(=O)NCCO [Anandamide]
2. C=CC[C@@H]1/C=C(\C)C[C@H](C)C[C@H](OC)[C@H]2O[C@@](O)(C(=O)C(=O)N3CCCC[C@H]3C(=O)O[C@H](/C(C)=C/[C@@H]3CC[C@@H](O)[C@H](OC)C3)[C@H](C)[C@@H](O)CC1=O)[C@H](C)C[C@@H]2OC
3. CCc1c(C)nc(SCC(=O)Nc2nc(-c3ccc(OC)cc3)cs2)[nH]c1=O

1: 3.27; 2: -1.94; 3: 6.48
